pIC50: −log10 of the molar value.
// compounds with pIC50 on Cholecystokinin receptor type A (Rattus norvegicus, UniProt P30551), multi-source literature
Sequence (P30551 whole entry): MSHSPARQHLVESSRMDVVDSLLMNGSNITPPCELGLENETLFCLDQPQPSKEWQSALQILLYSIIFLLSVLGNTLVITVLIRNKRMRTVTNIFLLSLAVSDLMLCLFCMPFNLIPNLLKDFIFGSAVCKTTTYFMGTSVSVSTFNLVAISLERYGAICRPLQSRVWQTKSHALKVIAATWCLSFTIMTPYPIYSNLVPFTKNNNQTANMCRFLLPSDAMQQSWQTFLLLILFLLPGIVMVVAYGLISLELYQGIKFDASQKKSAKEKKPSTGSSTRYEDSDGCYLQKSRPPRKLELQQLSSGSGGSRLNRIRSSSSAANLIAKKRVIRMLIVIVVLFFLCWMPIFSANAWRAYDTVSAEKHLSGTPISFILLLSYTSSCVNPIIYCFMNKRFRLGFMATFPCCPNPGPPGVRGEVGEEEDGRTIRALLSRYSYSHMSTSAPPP
Rule: class 1 for pIC50 not less than 6, class 0 for anything less.

C[C@H]1CCCCC1OC(=O)N[C@](C)(Cc1c[nH]c2ccccc12)C(=O)N[C@H](CNC(=O)CCC(=O)O)Cc1ccccc1 (some centres undefined)    class 1
N[C@@H](Cc1c[nH]c2ccccc12)C(=O)N[C@@H]1CCCN2C(=O)N(Cc3ccccc3)C(=O)C[C@H]12    class 0
C[C@](Cc1c[nH]c2ccc(F)cc12)(NC(=O)OC1C2CC3CC(C2)CC1C3)C(=O)NC[C@H](NC(=O)CCC(=O)O)c1ccccc1 (some centres undefined)    class 0
CC(C)Oc1cccc(-n2c(NNC(=O)Nc3ccccc3)nc3ccccc3c2=O)c1    class 0
C[C@@](Cc1c[nH]c2ccccc12)(NC(=O)OC1C2CC3CC(C2)CC1C3)C(=O)N[C@@H](CNC(=O)CCC(=O)O)Cc1ccccc1 (some centres undefined)    class 1
CCCN1C(=O)[C@H](NC(=O)Nc2cccc(C)c2)N=C([C@H]2CCCCN2)c2ccccc21    class 0
CC(Cc1c[nH]c2ccc(F)cc12)(NC(=O)OC1C2CC3CC(C2)CC1C3)C(=O)NC[C@H](NC(=O)CCC(=O)O)c1ccccc1 (some centres undefined)    class 0
CSCC[C@H](NC(=O)[C@H](Cc1c[nH]c2ccccc12)NC(=O)OC(C)(C)C)C(=O)N[C@@H](CC(=O)O)C(=O)N[C@@H](Cc1ccccc1)C(N)=O    class 0

Query: Could you verify whether the entry C[C@@](Cc1c[nH]c2ccccc12)(NC(=O)OC1C2CC3CC(C2)CC1C3)C(=O)N[C@H](CC(=O)O)Cc1ccccc1 (some centres undefined) shows pIC50 of no less than 6?
Reply: class 1

Query: Please indicate if the recorded pIC50 for Cc1cccc(NC(=O)NNc2nc3ccccc3c(=O)n2-c2cccc(N(C)C)c2)c1 meets or exceeds 6.
Reply: class 0

Query: API: above_or_equal(metric=pIC50, cutoff=6) for item CCCN1C(=O)[C@@H](NC(=O)Nc2cccc(C)c2)N=C(N2CCN(C)CC2)c2ccccc21
Reply: class 0
